Tested on: bacterial and fungal species
Assay: Broth microdilution, all studied microorganisms (panel summary)
Type: cell-based
Details: out of 7 studied microorganisms
endpoint: studied microorganisms on which inhibitory effects were noted

O=C(O)[C@H]1O[C@@H](Oc2cc(O)c3c(=O)cc(-c4ccc(O)cc4)oc3c2)[C@H](O)[C@@H](O)[C@@H]1O [Compound 3, apigenin-7-O-β-D-glucuronopyranoside] ... 4/7
O=c1c(O)c(-c2ccc(O)c(O)c2)oc2cc(O)cc(O)c12 ... 7/7
O=c1c(O[C@@H]2O[C@H](CO)[C@H](O)[C@H](O)[C@H]2O)c(-c2ccc(O)c(O)c2)oc2cc(O)cc(O)c12 [Compound 4, quercetin 3-O-β-D-galactopyranoside] ... 7/7

Would you kindly look at the next entry?
Please supply the value of reported studied microorganisms on which inhibitory effects were noted for the item `C[C@@H]1O[C@@H](OC[C@H]2O[C@@H](Oc3c(-c4ccc(O)c(O)c4)oc4cc(O)cc(O)c4c3=O)[C@H](O)[C@@H](O)[C@@H]2O)[C@H](O)[C@H](O)[C@H]1O`
4/7

###

Please respond with reported MFC/MIC for every item in the list.
Test system: Candida parapsilosis
Assay: Broth microdilution MIC/MFC against Candida parapsilosis
Format: cell-based
Settings: Candida parapsilosis clinical isolate
Protocol: The studied microorganisms were both reference (from the American Type Culture Collection) and clinical (from Pasteur Institute Paris, France) strains of Enterobacter aerogenes, Escherichia coli, Klebsiella pneumoniae, Candida albicans, and Cryptococcus neoformans. […] MICs were determined by broth micro dilution. […] MICs were assessed visually after the corresponding incubation period and were taken as the lowest sample concentration at which there was no growth or virtually no growth. […]
Numbers only.

Check out these entries, answers already filled in.
O=c1c(O)c(-c2ccc(O)c(O)c2)oc2cc(O)cc(O)c12 [Compound 2, quercetin] ... 1
O=c1c(O[C@@H]2O[C@H](CO)[C@H](O)[C@H](O)[C@H]2O)c(-c2ccc(O)c(O)c2)oc2cc(O)cc(O)c12 [Compound 4, quercetin 3-O-β-D-galactopyranoside] ... 2
C[C@@H]1[C@H](O)[C@@H](C)/C=C/C=C/CC/C=C/C=C/C=C/C=C/C(O[C@H]2O[C@H](C)[C@@H](O)[C@H](N)[C@@H]2O)CC2O[C@](O)(CC(O)C(O)CCC(O)CC(O)CC(O)CC(=O)O[C@H]1C)CC(O)C2C(=O)O (stereo partly shown) [nystatin, reference compound] ... 1

Would you kindly look at the next entry?
Please supply the value of reported MFC/MIC for the item O=C(O)[C@H]1O[C@@H](Oc2cc(O)c3c(=O)cc(-c4ccc(O)cc4)oc3c2)[C@H](O)[C@@H](O)[C@@H]1O [Compound 3, apigenin-7-O-β-D-glucuronopyranoside]
2

###

Test system: Staphylococcus aureus
Experiment: Broth microdilution MIC/MBC against Staphylococcus aureus
Type: cell-based
Settings: Staphylococcus aureus clinical isolate; 37°C, 24 h
Please respond with reported MIC for every item in the list.
One number for each entry, in µg/mL.

Check out these entries, answers already filled in.
C[C@@H]1O[C@@H](OC[C@H]2O[C@@H](Oc3c(-c4ccc(O)c(O)c4)oc4cc(O)cc(O)c4c3=O)[C@H](O)[C@@H](O)[C@@H]2O)[C@H](O)[C@H](O)[C@H]1O [Compound 5] ... 64
O=c1c(O[C@@H]2O[C@H](CO)[C@H](O)[C@H](O)[C@H]2O)c(-c2ccc(O)c(O)c2)oc2cc(O)cc(O)c12 [Compound 4, quercetin 3-O-β-D-galactopyranoside] ... 128
O=C(N[C@H](CO)[C@H](O)c1ccc([N+](=O)[O-])cc1)C(Cl)Cl [chloramphenicol, Chloramphenicol, reference compound] ... 64

Would you kindly look at the next entry?
Please supply the value of reported MIC for the item O=c1c(O)c(-c2ccc(O)c(O)c2)oc2cc(O)cc(O)c12 [Compound 2, quercetin]
256

Value source: paper PMC4424558
